Sourced from PubChem BioAssay AID504884

Test system: DNA topoisomerase I (Yersinia pestis CO92)
Assay: Yersinia pestis topoisomerase I inhibitors, primary screen, biochemical, cleavage product accumulation, plate reader, single point (AID 504884)
Conditions: Y. pestis Topo-I cleavage product accumulation, at 10 µM, hits give high values
Hit rate of the full screen: of about 360,000 compounds, about 230 (0.064%) were called active. This is one part of a sample in which actives are shown more often than they occur.
Lab note: anything with activity at or over 10% counts as TRUE; the rest go in FALSE.

Answered cases to consult:
> print(dat)
                                    compound  classification
 1  CC=CCn1c(SCCCc2ccccc2)nc2c1c(=O)[nH]c(=O)n2C            TRUE
 2  CC1CCN(S(=O)(=O)c2ccc(NC(=O)C3CC(=O)N(c4ccccc4)C3)cc2)CC1 (stereo unspecified)            TRUE
 3  O=C(CC1C(=O)NCCN1C(=O)c1ccc([N+](=O)[O-])cc1)Nc1cccc(Cl)c1 (stereo unspecified)           FALSE
 4  CCCCNC(=O)c1ccccc1NC(=O)c1ccccc1N(C)S(C)(=O)=O           FALSE
 5              C[N+]1(CCNC(=O)/C=N/O)CCCCC1           FALSE
 6  COC(=O)[C@H]1C[C@H](OC(=O)NCc2ccccc2)[C@@]2(O)CN(S(=O)(=O)c3ccc(C)cc3)CC2[C@H]1C(=O)OC (stereo partly specified)           FALSE
 7  CCCCn1c(N)c(N(CCOC)C(=O)COc2c(C)cccc2C)c(=O)[nH]c1=O           FALSE
 8  Cc1ccccc1N1CC(C(=O)Nc2ccc(S(=O)(=O)N3CCCC3)cc2)CC1=O (stereo unspecified)            TRUE
 9          Cc1nnc(SCC(=O)NC(=O)NC2CCCC2)n1N           FALSE
10  CN1C(C)(C)CC(NC(=O)CCC(=O)NC2CC(C)(C)N(C)C(C)(C)C2)CC1(C)C           FALSE

Challenge: Does the reported activity for CCC1(C)NC(=O)N(CC(=O)N2CCN(c3cccc(Cl)c3)CC2)C1=O (stereo unspecified) fall at or above the 10% mark?
Response given: FALSE

Challenge: Does the reported activity for NC(Cc1ccc(F)cc1)c1csc(Nc2nncc3ccccc23)n1 (stereo unspecified) fall at or above the 10% mark?
Response given: FALSE

Challenge: Does the reported activity for CC1CN(/C=C/C(=O)C(F)(F)F)CC(C)O1 (stereo unspecified) fall at or above the 10% mark?
Response given: FALSE

Challenge: Does the reported activity for O=C(Nc1ccc(S(=O)(=O)N2CCCCC2)cc1)C1CC(=O)N(c2ccc(F)cc2)C1 (stereo unspecified) fall at or above the 10% mark?
Response given: TRUE

Challenge: Does the reported activity for "CCC(CC)C(=O)Nc1c2c(nn1-c1ccc(C)cc1)CS(=O)(=O)C2" fall at or above the 10% mark?
Response given: FALSE

Challenge: Does the reported activity for "O=C(CN1C(=O)COc2ccc(Cl)cc21)N1CCOCC1" fall at or above the 10% mark?
Response given: FALSE

Challenge: Does the reported activity for Cc1cc(C)c(C2C3=C(Nc4c2c(C)nn4-c2ccccn2)c2ccccc2C3=O)c(C)c1 (stereo unspecified) fall at or above the 10% mark?
Response given: FALSE

Challenge: Does the reported activity for "Cc1ccccc1-c1nc(CS(=O)(=O)CC(=O)N2CCc3ccccc3C2)c(C)o1" fall at or above the 10% mark?
Response given: TRUE

Challenge: Does the reported activity for "COc1ccc(N(CC(=O)NC2CCCCC2)C(=O)CNC(=O)c2ccco2)c(OC)c1" fall at or above the 10% mark?
Response given: TRUE

Challenge: Does the reported activity for "C=C(C)CNc1cc(S(=O)(=O)N2CCOCC2)ccc1Oc1ccccc1" fall at or above the 10% mark?
Response given: TRUE

Challenge: Does the reported activity for "Cc1nc2c(ncn2-c2ccccc2)c(=O)n1NC(=O)CN1CCCC1" fall at or above the 10% mark?
Response given: FALSE

----------
Tested on: DNA topoisomerase I (Yersinia pestis CO92)
Test: Yersinia pestis topoisomerase I inhibitors, primary screen, biochemical, cleavage product accumulation, plate reader, single point (AID 504884)
Settings: Y. pestis Topo-I cleavage product accumulation, at 10 µM, hits give high values
The whole screen tested about 360,000 compounds, of which about 230 (0.064%) were called active. The sample as a whole holds a higher share of actives than the screen did.
Each entry below lists one item and its recorded activity value.
The reply should contain only the number, in %.

Look over these answered cases.
> print(dat)
                                   compound  value.type  experimental.result
1  CN(C(=O)COC(=O)CCCc1c[nH]c2ccccc12)c1c(N)n(Cc2ccccc2)c(=O)[nH]c1=O    activity                   15
2  CCn1ncc(C2=NOC(C(=O)Nc3ccccc3C(=O)OC)C2)c1C (configuration not stated)    activity                 16.1
3  CCN(C(=O)COc1ccc(C(=O)c2ccccc2)cc1)c1ccccc1    activity                 51.2
4  CC(=O)c1nn(-c2ccc(C)cc2)cc1C(=O)c1cccc(Br)c1    activity                 8.28
5  O=C(COc1ccc(F)cc1)N(CC1=CCS(=O)(=O)C1)c1ccccc1    activity                 3.66

Challenge: Report its activity with DNA topoisomerase I (Yersinia pestis CO92) as the test system: Cc1cc(OCC(=O)NCC(O)c2ccccc2)c2c(C)c(C)c(=O)oc2c1 (configuration not stated)
Response given: -1

Challenge: Report its activity with DNA topoisomerase I (Yersinia pestis CO92) as the test system: "COC(=O)CN1C(=O)[C@H]2[C@@H](C3CC3)N3C(=O)CN(Cc4ccc(-c5ccccc5)cc4)C(=O)[C@@]3(Cc3ccccc3)[C@H]2C1=O"
Response given: 35.2

Challenge: Report its activity with DNA topoisomerase I (Yersinia pestis CO92) as the test system: "Cc1ccc(Cl)cc1NC(=O)C1CCN(S(C)(=O)=O)CC1"
Response given: 6.58

Challenge: Report its activity with DNA topoisomerase I (Yersinia pestis CO92) as the test system: Cc1cc(C)nc(/N=C2\NC(=O)CC(C(=O)O)N2c2ccc(Cl)cc2Cl)n1 (configuration not stated)
Response given: -1.83

Challenge: Report its activity with DNA topoisomerase I (Yersinia pestis CO92) as the test system: "Cc1cc(Cl)c(S(=O)(=O)NCc2cccnc2)cc1OCC(N)=O"
Response given: -1.35

----------
Each entry below lists one item and its recorded activity value.
System: DNA topoisomerase I (Yersinia pestis CO92)
Experiment: Yersinia pestis topoisomerase I inhibitors, primary screen, biochemical, cleavage product accumulation, plate reader, single point (AID 504884)
Settings: Y. pestis Topo-I cleavage product accumulation, at 10 µM, hits give high values
Hit rate of the full screen: of about 360,000 compounds, about 230 (0.064%) were called active. This is one part of a sample in which actives are shown more often than they occur.
The reply should contain only the number, in %.

Look over these answered cases.
> print(dat)
                                   compound                               system.name  result.units  experimental.result
1  Cc1nn(C)c(C)c1S(=O)(=O)N1CCC(CO)(Cc2ccc(Cl)cc2)CC1  DNA topoisomerase I (Yersinia pestis CO92)             %                 4.97
2     Cc1cc(N2CCN(c3ccc(F)cc3)CC2)n2ncnc2n1  DNA topoisomerase I (Yersinia pestis CO92)             %                 1.33
3  CCC(=O)NC(Nc1cc(C)ccn1)(C(F)(F)F)C(F)(F)F  DNA topoisomerase I (Yersinia pestis CO92)             %                -7.52
4  COc1ccc(-n2c(Cc3cccn3C)nnc2SCC(=O)Nc2cc(C)cc(C)c2)cc1  DNA topoisomerase I (Yersinia pestis CO92)             %                 18.8
5  Cc1ccc(S(=O)(=O)N2CCC(Oc3ccc(-n4cnnn4)cc3)CC2)cc1  DNA topoisomerase I (Yersinia pestis CO92)             %                 9.39
6     Cc1c(CCO)c(=O)[nH]n1C(=O)c1c(F)cccc1F  DNA topoisomerase I (Yersinia pestis CO92)             %                 11.7

Challenge: Fill in reported activity for this entry: CC1CCCC(C)N1/N=C/c1ccccc1OC(F)F (stereo unspecified)
Response given: -8.42

Challenge: Fill in reported activity for this entry: COC(=O)Nc1ccc(S(=O)(=O)N2CCN(CCN3C(=O)C4C5C=CC(C5)C4C3=O)CC2)cc1 (stereo unspecified)
Response given: 0.176

Challenge: Fill in reported activity for this entry: "Cc1cc2nc(C(F)(F)F)cc(-c3cccs3)n2n1"
Response given: -15.7

Challenge: Fill in reported activity for this entry: CN(C)C(CNC(=O)c1ccc(S(=O)(=O)NCc2ccco2)cc1)c1ccccc1 (stereo unspecified)
Response given: 2.31

Challenge: Fill in reported activity for this entry: "O=S(=O)(O)c1cc2onnc2c2ccccc12"
Response given: -2.58
